Give measured pKd for each item. Keep answers brief.
# study.target: Myosin-IIIb (Homo sapiens)
# Sequence (Q8WXR4 whole entry, the tested form may be a part): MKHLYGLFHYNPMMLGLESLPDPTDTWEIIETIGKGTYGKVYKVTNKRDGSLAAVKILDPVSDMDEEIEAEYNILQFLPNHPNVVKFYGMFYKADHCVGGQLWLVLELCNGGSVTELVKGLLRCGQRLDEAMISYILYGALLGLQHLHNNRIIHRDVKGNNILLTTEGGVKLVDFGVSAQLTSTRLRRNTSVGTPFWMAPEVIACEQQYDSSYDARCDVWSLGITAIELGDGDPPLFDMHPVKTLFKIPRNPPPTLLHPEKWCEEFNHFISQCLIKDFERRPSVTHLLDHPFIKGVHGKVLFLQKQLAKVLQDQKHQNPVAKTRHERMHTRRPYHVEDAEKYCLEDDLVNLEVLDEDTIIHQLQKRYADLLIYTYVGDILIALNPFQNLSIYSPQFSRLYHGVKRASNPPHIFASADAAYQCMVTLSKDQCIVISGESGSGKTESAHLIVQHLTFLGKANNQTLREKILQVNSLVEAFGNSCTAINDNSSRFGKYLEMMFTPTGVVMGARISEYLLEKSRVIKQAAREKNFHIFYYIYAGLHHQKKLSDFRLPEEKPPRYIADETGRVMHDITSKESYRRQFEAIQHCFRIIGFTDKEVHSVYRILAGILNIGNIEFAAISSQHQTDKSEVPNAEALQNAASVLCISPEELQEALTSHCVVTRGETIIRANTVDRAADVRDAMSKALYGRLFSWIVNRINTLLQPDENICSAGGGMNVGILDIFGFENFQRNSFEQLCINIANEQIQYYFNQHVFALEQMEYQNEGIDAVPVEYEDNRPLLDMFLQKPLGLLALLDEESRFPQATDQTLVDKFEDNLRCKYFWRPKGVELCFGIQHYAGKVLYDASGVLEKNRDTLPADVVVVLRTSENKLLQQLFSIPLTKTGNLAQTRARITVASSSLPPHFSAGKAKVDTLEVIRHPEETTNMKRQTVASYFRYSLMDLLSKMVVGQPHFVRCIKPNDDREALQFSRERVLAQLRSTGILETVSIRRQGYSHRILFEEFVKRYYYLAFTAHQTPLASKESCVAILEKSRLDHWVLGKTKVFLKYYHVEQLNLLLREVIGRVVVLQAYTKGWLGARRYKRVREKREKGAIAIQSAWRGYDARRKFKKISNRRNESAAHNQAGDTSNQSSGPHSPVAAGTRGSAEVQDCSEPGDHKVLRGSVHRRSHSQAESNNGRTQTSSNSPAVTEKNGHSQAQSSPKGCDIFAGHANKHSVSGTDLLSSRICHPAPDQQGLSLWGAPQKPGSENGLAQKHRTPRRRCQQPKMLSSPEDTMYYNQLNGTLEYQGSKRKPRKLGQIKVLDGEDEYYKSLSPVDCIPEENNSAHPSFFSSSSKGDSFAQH
# procedure.text: Binding affinity to recombinant full-length N-terminal His-FLAG-GST-tagged MYO3B (unknown origin) (1 to 362 residues) expressed in baculovirus infected Sf9 insect cells incubated for 1 hr by TR-FRET assay
// scale note: pKd = -log10(conc_M); give the bare number

Q: Could you share what pKd was measured for CO[C@@H]1[C@H](N(C)CCOCCOCCOCCNC(=O)CCC2=[N+]3C(=Cc4c(C)cc(C)n4[B-]3(F)F)C=C2)C[C@H]2O[C@]1(C)n1c3ccccc3c3c4c(c5c6ccccc6n2c5c31)C(=O)NC4 , tested on Myosin-IIIb (Homo sapiens)?
Ans: 6.53

Q: Could you share what pKd was measured for CO[C@@H]1[C@H](NCCOCCOCCOCCNC(=O)CCC2=[N+]3C(=Cc4c(C)cc(C)n4[B-]3(F)F)C=C2)C[C@H]2O[C@]1(C)n1c3ccccc3c3c4c(c5c6ccccc6n2c5c31)C(=O)NC4 , tested on Myosin-IIIb (Homo sapiens)?
Ans: 6.48

* * *

# study.target: Ephrin type-A receptor 3 (Homo sapiens, UniProt P29320)
# Sequence (P29320 whole entry, the tested form may be a part): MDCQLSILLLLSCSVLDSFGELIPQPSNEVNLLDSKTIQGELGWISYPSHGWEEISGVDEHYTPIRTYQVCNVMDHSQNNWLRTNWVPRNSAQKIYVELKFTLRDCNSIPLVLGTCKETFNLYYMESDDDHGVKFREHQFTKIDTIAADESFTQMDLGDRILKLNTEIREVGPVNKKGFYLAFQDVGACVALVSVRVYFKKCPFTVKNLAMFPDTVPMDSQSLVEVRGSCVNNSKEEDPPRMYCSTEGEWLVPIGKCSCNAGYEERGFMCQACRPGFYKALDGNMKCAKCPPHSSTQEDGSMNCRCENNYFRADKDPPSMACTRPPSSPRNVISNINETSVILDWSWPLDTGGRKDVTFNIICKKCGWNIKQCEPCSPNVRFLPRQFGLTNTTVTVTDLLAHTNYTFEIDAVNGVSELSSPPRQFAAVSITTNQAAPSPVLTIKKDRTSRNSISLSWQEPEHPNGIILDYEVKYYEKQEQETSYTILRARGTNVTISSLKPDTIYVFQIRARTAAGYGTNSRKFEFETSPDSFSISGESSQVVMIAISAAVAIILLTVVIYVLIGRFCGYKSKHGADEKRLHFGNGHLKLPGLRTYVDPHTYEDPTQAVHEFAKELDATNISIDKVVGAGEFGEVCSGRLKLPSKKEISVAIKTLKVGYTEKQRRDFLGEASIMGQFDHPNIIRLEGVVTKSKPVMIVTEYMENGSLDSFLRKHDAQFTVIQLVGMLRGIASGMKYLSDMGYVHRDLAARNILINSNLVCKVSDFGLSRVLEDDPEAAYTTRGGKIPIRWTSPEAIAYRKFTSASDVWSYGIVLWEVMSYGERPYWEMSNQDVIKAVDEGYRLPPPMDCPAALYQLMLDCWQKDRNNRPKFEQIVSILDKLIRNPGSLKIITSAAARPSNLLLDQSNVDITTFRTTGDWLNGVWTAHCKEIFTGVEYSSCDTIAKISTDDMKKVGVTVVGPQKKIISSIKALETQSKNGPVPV
# procedure.text: Binding affinity to recombinant N-terminal His-FLAG-GST-tagged EPHA3 (unknown origin) (579 to 983 residues) expressed in baculovirus infected Sf9 insect cells incubated for 1 hr by TR-FRET assay
property.measured: Kd (µM)
State the answer as a number, implicitly in µM.

Q: Consider the compound CO[C@@H]1[C@H](NCCOCCOCCOCCNC(=O)CCC2=[N+]3C(=Cc4c(C)cc(C)n4[B-]3(F)F)C=C2)C[C@H]2O[C@]1(C)n1c3ccccc3c3c4c(c5c6ccccc6n2c5c31)C(=O)NC4 and give its measured Kd.
Ans: 0.747

* * *

Give measured pKd for each item. Keep answers brief.
# study.target: STE20-like serine/threonine-protein kinase (Homo sapiens)
# Sequence (Q9H2G2 whole entry, the tested form may be a part): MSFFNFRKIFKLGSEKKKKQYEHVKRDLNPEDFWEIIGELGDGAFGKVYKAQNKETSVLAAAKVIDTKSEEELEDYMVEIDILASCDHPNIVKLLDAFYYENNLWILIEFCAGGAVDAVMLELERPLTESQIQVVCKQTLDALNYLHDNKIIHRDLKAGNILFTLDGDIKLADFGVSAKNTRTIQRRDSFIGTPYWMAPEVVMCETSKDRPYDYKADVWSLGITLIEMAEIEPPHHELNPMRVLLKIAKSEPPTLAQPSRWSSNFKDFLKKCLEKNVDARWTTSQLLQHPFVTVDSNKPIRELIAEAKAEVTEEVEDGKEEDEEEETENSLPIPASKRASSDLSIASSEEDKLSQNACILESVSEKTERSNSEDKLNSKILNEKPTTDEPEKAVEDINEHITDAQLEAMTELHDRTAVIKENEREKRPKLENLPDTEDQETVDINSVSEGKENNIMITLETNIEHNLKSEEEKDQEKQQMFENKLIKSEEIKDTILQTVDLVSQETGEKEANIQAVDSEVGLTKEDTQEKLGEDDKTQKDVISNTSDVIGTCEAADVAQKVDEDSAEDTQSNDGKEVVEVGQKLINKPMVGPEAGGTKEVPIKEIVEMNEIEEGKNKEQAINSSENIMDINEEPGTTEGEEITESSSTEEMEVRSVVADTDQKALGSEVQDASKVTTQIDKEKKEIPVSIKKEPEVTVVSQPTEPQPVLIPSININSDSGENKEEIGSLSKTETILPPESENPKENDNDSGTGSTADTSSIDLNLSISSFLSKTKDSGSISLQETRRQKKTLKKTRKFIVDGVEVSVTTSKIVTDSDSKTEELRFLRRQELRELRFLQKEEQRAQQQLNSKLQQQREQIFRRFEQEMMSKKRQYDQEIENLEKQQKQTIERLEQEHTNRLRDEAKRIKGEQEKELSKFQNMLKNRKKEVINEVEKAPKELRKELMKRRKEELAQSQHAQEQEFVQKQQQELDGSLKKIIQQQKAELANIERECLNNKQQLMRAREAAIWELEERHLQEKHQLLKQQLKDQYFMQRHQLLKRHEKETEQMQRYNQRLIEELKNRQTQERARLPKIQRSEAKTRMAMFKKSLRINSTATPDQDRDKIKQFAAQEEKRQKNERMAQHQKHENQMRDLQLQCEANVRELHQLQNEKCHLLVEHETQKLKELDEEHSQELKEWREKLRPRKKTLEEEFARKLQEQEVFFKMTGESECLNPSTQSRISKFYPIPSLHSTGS
# procedure.text: Binding affinity to recombinant N-terminal His-FLAG-GST-tagged SLK (unknown origin) (1 to 1152 residues) expressed in baculovirus infected Sf9 insect cells incubated for 1 hr by TR-FRET assay
// scale note: pKd = -log10(conc_M); give the bare number

Q: Could you share what pKd was measured for CO[C@@H]1[C@H](NCCOCCOCCOCCNC(=O)CCC2=[N+]3C(=Cc4c(C)cc(C)n4[B-]3(F)F)C=C2)C[C@H]2O[C@]1(C)n1c3ccccc3c3c4c(c5c6ccccc6n2c5c31)C(=O)NC4 , tested on STE20-like serine/threonine-protein kinase (Homo sapiens)?
Ans: 8.30

Q: Could you share what pKd was measured for CO[C@@H]1[C@H](N(C)CCOCCOCCOCCNC(=O)CCC2=[N+]3C(=Cc4c(C)cc(C)n4[B-]3(F)F)C=C2)C[C@H]2O[C@]1(C)n1c3ccccc3c3c4c(c5c6ccccc6n2c5c31)C(=O)NC4 , tested on STE20-like serine/threonine-protein kinase (Homo sapiens)?
Ans: 8.22

* * *

# study.target: Serine/threonine-protein kinase 38-like (Homo sapiens, UniProt Q9Y2H1)
# Sequence (Q9Y2H1 whole entry): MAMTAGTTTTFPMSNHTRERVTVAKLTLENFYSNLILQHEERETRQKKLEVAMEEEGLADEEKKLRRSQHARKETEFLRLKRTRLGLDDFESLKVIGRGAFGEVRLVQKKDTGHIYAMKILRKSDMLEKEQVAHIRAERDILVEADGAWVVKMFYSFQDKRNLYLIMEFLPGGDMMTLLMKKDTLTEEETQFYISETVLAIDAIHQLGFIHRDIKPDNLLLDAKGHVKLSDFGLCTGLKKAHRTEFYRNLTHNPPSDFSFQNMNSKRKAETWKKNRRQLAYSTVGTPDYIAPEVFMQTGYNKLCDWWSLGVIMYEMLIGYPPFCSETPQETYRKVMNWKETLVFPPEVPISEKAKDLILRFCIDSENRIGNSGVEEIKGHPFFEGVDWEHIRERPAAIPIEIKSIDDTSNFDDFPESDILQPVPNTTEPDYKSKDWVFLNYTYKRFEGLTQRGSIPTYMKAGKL
# procedure.text: Binding affinity to recombinant full-length N-terminal His-FLAG-GST-tagged STK38L (unknown origin) expressed in baculovirus infected Sf9 insect cells incubated for 1 hr by TR-FRET assay
property.measured: Kd (nM)
State the answer as a number, implicitly in nM.

Q: Consider the compound CO[C@@H]1[C@H](NCCOCCOCCOCCNC(=O)CCC2=[N+]3C(=Cc4c(C)cc(C)n4[B-]3(F)F)C=C2)C[C@H]2O[C@]1(C)n1c3ccccc3c3c4c(c5c6ccccc6n2c5c31)C(=O)NC4 and give its measured Kd.
Ans: 759

Values from ChEMBL document CHEMBL4321812
